tested on: Danio rerio embryo; assay: EC10 Eye-jaw distance_Decrease; higher = less potent; details: exposure time: 4 dpf
I would appreciate it if you labelled entries Satisfied when EC10 Eye-jaw distance Decrease is 5 µM or higher, otherwise Not satisfied.

See these solved cases before continuing.
- Compound: "CC(C)(C)C(O)C(Oc1ccc(Cl)cc1)n1cncn1 (stereo not drawn)"
  Tested system: "Danio rerio embryo"
  Label value: "Satisfied"
- Compound: "CC1(C)O[C@@H]2[C@@H](CO[C@@]3(COS(N)(=O)=O)OC(C)(C)O[C@@H]23)O1 [Topiramate]"
  Tested system: "Danio rerio embryo"
  Label value: "Satisfied"
- Compound: "C[Si](Cn1cncn1)(c1ccc(F)cc1)c1ccc(F)cc1"
  Tested system: "Danio rerio embryo"
  Label value: "Not satisfied"

Task: Answer whether EC10 Eye-jaw distance Decrease of CC(=O)OCC(=O)[C@@]1(OC(C)=O)[C@@H](C)C[C@H]2[C@@H]3C[C@H](F)C4=CC(=O)C=C[C@]4(C)[C@@]3(F)[C@@H](O)C[C@@]21C [diflorasone diacetate] is greater than or equal to 5 µM.
Output: Not satisfied

Task: Record CC1(C)OC(=O)C(OCC2CC2)=C1c1ccc(S(C)(=O)=O)cc1 ; criterion: EC10 Eye-jaw distance Decrease no lower than 5 µM. Met?
Output: Satisfied

Task: Textbook exercise: given the entry CNCCC=C1c2ccccc2CCc2ccccc21 , state whether its EC10 Eye-jaw distance Decrease is greater than or equal to 5 µM.
Output: Satisfied

Task: Does the compound CC(=O)Nc1ccc(O)cc1 have recorded EC10 Eye-jaw distance Decrease that is 5 µM or more?
Output: Satisfied

* * *

system: Danio rerio embryo; assay: EC10 Heart rate; higher = less potent; conditions: exposure time: 2 dpf
Measure: EC10 Heart rate (µM)
Give bare numbers, in µM.

Worked cases, EC10 Heart rate given:
- Molecule: "O=C(O)CCc1nc(-c2ccccc2)c(-c2ccccc2)o1"
  EC10 Heart rate / µM: 28
- Molecule: "CCOC(=O)N1CCC(=C2c3ccc(Cl)cc3CCc3cccnc32)CC1"
  EC10 Heart rate / µM: 1.01
- Molecule: "CC(C)(C)C(O)/C(=C/c1ccc(Cl)cc1Cl)n1cncn1 (stereo unspecified)"
  EC10 Heart rate / µM: 4.6
- Molecule: "C[Si](Cn1cncn1)(c1ccc(F)cc1)c1ccc(F)cc1"
  EC10 Heart rate / µM: 16
- Molecule: "CCCCC(O)(Cn1cncn1)c1ccc(Cl)cc1Cl (stereo unspecified)"
  EC10 Heart rate / µM: 8.31

Count: 6. Required value per item: EC10 Heart rate.
1. CCCNCC(O)COc1ccccc1C(=O)CCc1ccccc1 (stereo unspecified)
2. Cc1ccc(-c2cc(C(F)(F)F)nn2-c2ccc(S(N)(=O)=O)cc2)cc1
3. CC1(C)OC(=O)C(OCC2CC2)=C1c1ccc(S(C)(=O)=O)cc1
4. CSc1nc2cc(Cl)c(Oc3cccc(Cl)c3Cl)cc2[nH]1
5. CNCCC=C1c2ccccc2CCc2ccccc21
6. CC(C)(C)C(O)C(Oc1ccc(Cl)cc1)n1cncn1 (stereo unspecified)

Output:
1: 1; 2: 10.3; 3: 86.2; 4: 0.345; 5: 39.8; 6: 13.7

* * *

system: Danio rerio embryo; test: EC20 Head size_Decrease; higher = less potent; details: exposure time: 2 dpf
I'd be grateful if you could share measured EC20 Head size Decrease for these entries.
Numbers only, in µM.

- Molecule: "CC(C)(C)C(O)C(Oc1ccc(Cl)cc1)n1cncn1 (stereo not given)"
  Tested system: "Danio rerio embryo"
  Output unit: "µM"
  Test value: 147
- Molecule: "CC(C)(C)C(O)/C(=C/c1ccc(Cl)cc1Cl)n1cncn1 (stereo not given)"
  Tested system: "Danio rerio embryo"
  Output unit: "µM"
  Test value: 4.37
- Molecule: "CCCCC(O)(Cn1cncn1)c1ccc(Cl)cc1Cl (stereo not given)"
  Tested system: "Danio rerio embryo"
  Output unit: "µM"
  Test value: 40.3
- Molecule: "COC(=O)Nc1nc2ccccc2[nH]1"
  Tested system: "Danio rerio embryo"
  Output unit: "µM"
  Test value: 3.05
- Molecule: "O=C(O)CCc1nc(-c2ccccc2)c(-c2ccccc2)o1"
  Tested system: "Danio rerio embryo"
  Output unit: "µM"
  Test value: 15.1

Dear colleague, could you send me EC20 Head size Decrease for each of the items below? Thanks.
1. CCOC(=O)N1CCC(=C2c3ccc(Cl)cc3CCc3cccnc32)CC1
2. C[Si](Cn1cncn1)(c1ccc(F)cc1)c1ccc(F)cc1
3. CC1=C(/C=C/C(C)=C/C=C/C(C)=C/C(=O)O)C(C)(C)CCC1 [all-trans retinoic acid]
4. CCO/N=C(\CC)C1=C(O)CC(c2c(C)cc(C)cc2C)CC1=O (stereo not given)

Output:
[4.61, 28.8, 0.026, 103]

Task: Given CCCCOC(=O)[C@@H](C)Oc1ccc(Oc2ccc(C(F)(F)F)cn2)cc1 , respond with its EC20 Head size Decrease.
Output: 4.24

* * *

system: Danio rerio embryo; details: exposure time: 4 dpf
Measure: EC50 LMR dark (µM)
One number for each entry, in µM.

Example cases with answers are listed next.
- Compound: "C[Si](Cn1cncn1)(c1ccc(F)cc1)c1ccc(F)cc1 [Flusilazole]"
  Test value: 2.77
- Compound: "CCCNCC(O)COc1ccccc1C(=O)CCc1ccccc1 (stereo not given) [Propafenone]"
  Test value: 11.2
- Compound: "CC(C)(C)C(O)C(Oc1ccc(Cl)cc1)n1cncn1 (stereo not given) [Triadimenol]"
  Test value: 25.2

For each of the items listed, what is its EC50 LMR dark?
1. Cc1cc2c(s1)Nc1ccccc1N=C2N1CCN(C)CC1 [Olanzapine]
2. Cc1ccc(-c2cc(C(F)(F)F)nn2-c2ccc(S(N)(=O)=O)cc2)cc1 [Celecoxib]

Output:
[24, 13]

* * *

test system: Danio rerio embryo; test: EC20 Body length_Decrease; higher = less potent; conditions: exposure time: 4 dpf
The following ranges of EC20 Body length Decrease define the classes used here: class A: < 1 µM; class B: ≥ 1 µM and < 20 µM; class C: ≥ 20 µM

- Compound: "CC(C)(C)C(O)/C(=C/c1ccc(Cl)cc1Cl)n1cncn1 (centres undefined)"
  Tested system: "Danio rerio embryo"
  Label value: "class B"
- Compound: "Cc1ccc(-c2cc(C(F)(F)F)nn2-c2ccc(S(N)(=O)=O)cc2)cc1"
  Tested system: "Danio rerio embryo"
  Label value: "class B"
- Compound: "CC1=C(/C=C/C(C)=C/C=C/C(C)=C/C(=O)O)C(C)(C)CCC1 [all-trans retinoic acid]"
  Tested system: "Danio rerio embryo"
  Label value: "class A"
- Compound: "Cc1cc2c(s1)Nc1ccccc1N=C2N1CCN(C)CC1"
  Tested system: "Danio rerio embryo"
  Label value: "class C"
- Compound: "CCCCC(O)(Cn1cncn1)c1ccc(Cl)cc1Cl (centres undefined)"
  Tested system: "Danio rerio embryo"
  Label value: "class B"

Task: Input CCOC(=O)N1CCC(=C2c3ccc(Cl)cc3CCc3cccnc32)CC1 ; output its category
Output: class A

Task: For the record CCO/N=C(\CC)C1=C(O)CC(c2c(C)cc(C)cc2C)CC1=O (centres undefined) , report the class its EC20 Body length Decrease corresponds to.
Output: class C

Task: Which class holds CC1(C)O[C@@H]2[C@@H](CO[C@@]3(COS(N)(=O)=O)OC(C)(C)O[C@@H]23)O1 [Topiramate] ?
Output: class C

Task: Assign a bin to CCCCOC(=O)[C@@H](C)Oc1ccc(Oc2ccc(C(F)(F)F)cn2)cc1
Output: class B

* * *

Please provide measured EC10 Lack of SB for the entries that follow.
test system: Danio rerio embryo; experiment: EC10 Lack of SB; higher = less potent; conditions: exposure time: 4 dpf
Answers are plain numbers, in µM.

# example entries with known answers
- Compound: "CN(Cc1cnc2nc(N)nc(N)c2n1)c1ccc(C(=O)N[C@@H](CCC(=O)O)C(=O)O)cc1 [Methotrexate]"
  Tested system: "Danio rerio embryo"
  Output unit: "µM"
  EC10 Lack of SB: 82.2
- Compound: "CCCCC(O)(Cn1cncn1)c1ccc(Cl)cc1Cl (centres undefined)"
  Tested system: "Danio rerio embryo"
  Output unit: "µM"
  EC10 Lack of SB: 6.28
- Compound: "CC1(C)OC(=O)C(OCC2CC2)=C1c1ccc(S(C)(=O)=O)cc1"
  Tested system: "Danio rerio embryo"
  Output unit: "µM"
  EC10 Lack of SB: 34.7

Task: Provide the reported EC10 Lack of SB (system: Danio rerio embryo) for C[Si](Cn1cncn1)(c1ccc(F)cc1)c1ccc(F)cc1
Output: 1.64

* * *

test system: Danio rerio embryo; experiment: EC20 Eye-jaw distance_Decrease; higher = less potent; conditions: exposure time: 4 dpf
Label scheme for EC20 Eye-jaw distance Decrease: lower than 20 µM is n, 20 µM and above is y.

Example results:
- Compound: "CNCCC=C1c2ccccc2CCc2ccccc21"
  Label value: "n"
- Compound: "CCOC(=O)N1CCC(=C2c3ccc(Cl)cc3CCc3cccnc32)CC1"
  Label value: "n"
- Compound: "CC1=C(/C=C/C(C)=C/C=C/C(C)=C/C(=O)O)C(C)(C)CCC1 [all-trans retinoic acid]"
  Label value: "n"
- Compound: "CC(C)(C)C(O)C(Oc1ccc(Cl)cc1)n1cncn1 (configuration not stated)"
  Label value: "y"

Task: Could you verify whether the entry CN(Cc1cnc2nc(N)nc(N)c2n1)c1ccc(C(=O)N[C@@H](CCC(=O)O)C(=O)O)cc1 [Methotrexate] shows EC20 Eye-jaw distance Decrease of no less than 20 µM?
Output: y

Task: Has CCCCC(O)(Cn1cncn1)c1ccc(Cl)cc1Cl (configuration not stated) a recorded EC20 Eye-jaw distance Decrease greater than or equal to 20 µM?
Output: n
